The reported measurements were obtained from the MegaScale stability set (Tsuboyama et al. 2023).

B1: 5KPH (parent)
chain: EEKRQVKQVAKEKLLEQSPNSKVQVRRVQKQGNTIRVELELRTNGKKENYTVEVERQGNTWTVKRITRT

Variants of: B1
Assay Summary: folding stability dG (cDNA display proteolysis); higher = more stable
Measurement Conditions: PBS, room temperature
Measured folding stability dG accompanies every entry in the list below.
Report the value in kcal/mol with no unit label.

Mutation Notation | Unit Spec | folding stability dG
K47E | kcal/mol | 3.13
V63S | kcal/mol | 1.81
N44P | kcal/mol | 3.4
N44M | kcal/mol | 3.84
L15M | kcal/mol | 3.7
E2M | kcal/mol | 3.58

Supply reported folding stability dG belonging to this variant: S21G
4.01

For E48S , write its folding stability dG.
3.57
